Hello, the source for this data is PubChem BioAssay (NCI), in case you need it.

This section presents compounds with their documented TGI values.
system: HCT-116 colon; assay: NCI tumour cell line growth inhibition, 48 h

Use the examples below as a reference point.
S=C1SC2(CCCCCC2)NC2=C1CCCCC2 ... > 100 µM
Cc1ccc2nc(NC(=O)CSC(=S)N3CCN(Cc4ccccc4)CC3)sc2c1 ... > 100 µM
COc1ccc(CCNC(=O)Cc2ccccc2CCO)cc1OC ... > 100 µM

Q: Give TGI for the following compound: CN([N-]C(=O)CC(=O)[N-]N(C)C(=S)c1ccccc1)C(=S)c1ccccc1.[Cu+2]
Result: 0.014 µM

Q: Give TGI for the following compound: COc1ccc(OC)c2c1C(=O)C(Cl)=C(Cl)C2=O
Result: 3.86 µM

Q: Give TGI for the following compound: COc1cc2c(cc1OC)C(C1(O)CCCCC1)NCC2 (stereo unspecified)
Result: > 100 µM
